Target System: T1, human DLL4 expressed on cells (CHO-hDLL4; HEK293-hDLL4) (human, UniProt Q9NR61 27-685)
T1 construct: full length human DLL4 overexpressed on CHO cells (FMAT, FACS) or HEK293 cells (reporter assay)
Assay Explanation: competition FMAT CHO-hDLL4; summary table
pIC50: −log10 of the molar value.
Measured pIC50, listed per entry for reference.

Binder	pIC50
DLLBII101G08 (VHH, not shown: small tags and cut ends, parent VHH; also called 101G08 (wt); 101G8) VHH: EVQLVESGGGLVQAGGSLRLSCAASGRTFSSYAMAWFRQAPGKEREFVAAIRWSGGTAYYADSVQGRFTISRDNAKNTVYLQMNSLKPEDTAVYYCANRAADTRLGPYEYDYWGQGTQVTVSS	7.16
DLLBII129E11 (VHH, not shown: small tags and cut ends) VHH: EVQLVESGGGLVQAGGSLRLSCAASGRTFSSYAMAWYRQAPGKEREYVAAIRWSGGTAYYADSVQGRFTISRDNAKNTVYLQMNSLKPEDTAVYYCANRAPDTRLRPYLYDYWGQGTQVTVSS	8.09
DLLBII133A09 (VHH, not shown: small tags and cut ends) VHH: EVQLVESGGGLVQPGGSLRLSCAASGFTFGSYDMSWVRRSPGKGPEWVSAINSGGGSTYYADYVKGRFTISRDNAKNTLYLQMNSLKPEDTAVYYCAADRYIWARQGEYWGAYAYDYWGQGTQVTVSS	8.18
DLLBII015 (VHH, not shown: small tags and cut ends) VHH: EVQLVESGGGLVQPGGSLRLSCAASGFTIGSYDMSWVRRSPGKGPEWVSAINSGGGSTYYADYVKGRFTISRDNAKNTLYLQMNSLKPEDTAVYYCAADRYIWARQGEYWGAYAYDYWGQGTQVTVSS	8.24
